experiment: ACEA_AR_antagonist_AUC_viability: ACEA Biosciences xCELLigence Real-Time Cell Analysis on Androgen Receptor Antagonism for Viability (AID 2283776);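 also: 22Rv1 human prostate cancer cells growing on impedance electrode plates; area under impedance growth curve at 80 h after dosing as viability; hits lower the growth signal relative to DMSO meaning cytotoxicity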
Inconclusive results are not listed. Calls of active or inactive are those of the source. The calls were made as follows: active = hit-call score of the fitted dose curve at least 0.9, where 1 is the maximum; inconclusive = response in the unintended direction; inactive = score below 0.9.
Write down one outcome, taken from true for active, false for inactive

What outcome does the record of this test show for "NCCN" ?
false

What outcome does the record of this test show for "CC(C)[C@@H]1CC[C@@H](C)C[C@H]1O" ?
true

What outcome does the record of this test show for CCC(C)c1ccccc1O (centres undefined) ?
false

What outcome does the record of this test show for "Cc1cc(C(C)(C)C)c(O)c(C(C)(C)C)c1" ?
true

* * *

molecular target: Nuclear receptor subfamily 1 group I member 2 (Homo sapiens) (UniProt O75469); experiment: ATG_PXR_TRANS: Attagene TRANS-FACTORIAL HepG2 Assay for human Pregnane X Receptor (PXR) (AID 2283008)
Sequence (O75469 whole entry, looked up): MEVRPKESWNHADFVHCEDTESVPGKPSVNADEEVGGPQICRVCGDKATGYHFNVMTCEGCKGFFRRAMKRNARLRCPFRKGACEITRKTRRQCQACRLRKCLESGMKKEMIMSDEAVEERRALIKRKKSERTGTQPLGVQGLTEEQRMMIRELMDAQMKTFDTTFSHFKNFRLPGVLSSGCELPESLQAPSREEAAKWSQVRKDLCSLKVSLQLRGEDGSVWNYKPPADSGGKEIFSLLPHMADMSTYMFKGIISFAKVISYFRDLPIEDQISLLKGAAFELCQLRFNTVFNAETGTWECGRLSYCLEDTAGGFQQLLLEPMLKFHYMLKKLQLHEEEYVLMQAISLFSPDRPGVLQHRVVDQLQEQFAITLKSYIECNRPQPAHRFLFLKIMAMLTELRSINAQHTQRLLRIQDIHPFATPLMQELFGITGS
Inconclusive results are not listed. Active and inactive are the calls of the source. Rule for the calls: active = hit-call score of the fitted dose curve at least 0.9, where 1 is the maximum; inconclusive = response in the unintended direction; inactive = score below 0.9.
Write down one outcome, taken from 1.0 (active), 0.0 (inactive)

What outcome does the record of this test show for "CCN(CC)CC" ?
0.0

What outcome does the record of this test show for "O=C(F)C(F)(F)C(F)(F)C(F)(F)C(F)F" ?
0.0

What outcome does the record of this test show for "C[C@]12CC[C@@H]3c4ccc(O)cc4CC[C@H]3[C@@H]1C[C@@H](O)[C@@H]2O" ?
0.0

What outcome does the record of this test show for "Cc1ccc(C(=O)c2ccccc2)cc1" ?
1.0

What outcome does the record of this test show for "NS(=O)(=O)O" ?
0.0

What outcome does the record of this test show for CC(C)(C)C1CCCCC1O (centres undefined) ?
0.0

What outcome does the record of this test show for "CCCCC=O" ?
0.0

What outcome does the record of this test show for "O=C1c2ccccc2C(=O)c2c(O)c(O)cc(O)c21" ?
1.0

What outcome does the record of this test show for CCCCC(CC)C(=O)O (centres undefined) ?
0.0

What outcome does the record of this test show for "Cc1cc(Cc2cc(C)cc(C(C)(C)C)c2O)c(O)c(C(C)(C)C)c1" ?
1.0

What outcome does the record of this test show for "O=S(=O)(O)c1ccccc1" ?
0.0

What outcome does the record of this test show for CC1COCc2cc3c(cc21)C(C)(C)C(C)C3(C)C (centres undefined) ?
1.0

What outcome does the record of this test show for "Cc1cncc(C)c1" ?
0.0

What outcome does the record of this test show for "CC(C)(c1ccc(Oc2ccc(N)cc2)cc1)c1ccc(Oc2ccc(N)cc2)cc1" ?
1.0
